Each record here notes measured pKi.
# assayed.target: Protein AF-9 (Homo sapiens, UniProt P42568)
# Sequence (P42568 whole entry): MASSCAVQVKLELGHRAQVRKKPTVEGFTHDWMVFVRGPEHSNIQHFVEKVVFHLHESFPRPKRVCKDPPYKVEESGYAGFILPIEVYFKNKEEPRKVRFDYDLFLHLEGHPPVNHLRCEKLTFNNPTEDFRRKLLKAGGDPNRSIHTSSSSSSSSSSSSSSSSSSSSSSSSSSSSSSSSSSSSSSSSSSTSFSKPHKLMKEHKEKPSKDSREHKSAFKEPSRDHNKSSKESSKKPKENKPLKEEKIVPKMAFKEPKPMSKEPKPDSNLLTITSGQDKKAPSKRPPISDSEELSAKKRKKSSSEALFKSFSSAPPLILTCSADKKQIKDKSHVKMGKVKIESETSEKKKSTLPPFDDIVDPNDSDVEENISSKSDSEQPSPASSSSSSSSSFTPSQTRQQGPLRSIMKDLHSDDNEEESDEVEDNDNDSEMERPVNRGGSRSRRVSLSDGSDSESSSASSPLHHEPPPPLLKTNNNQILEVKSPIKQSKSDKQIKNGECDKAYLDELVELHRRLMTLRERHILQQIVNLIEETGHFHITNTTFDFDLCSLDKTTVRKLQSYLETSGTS
# test.name: Displacement of N-Flu-DOT1L from MBP-tagged AF9 (unknown origin) (487 to 568 residues) expressed in Escherichia coli BL21(DE3) measured after 3 hrs by fluorescence polarization assay
Scale note: pKi = -log10(concentration in M).

substance	assay.endpoint	result
Ac-LPVSIPL-NH2	pKi	6.80
Ac-LPISIPL-NH2	pKi	6.80

Query Ac-LPISIPLSTV-NH2 yields pKi of 7.70

Ref: ChEMBL document CHEMBL4196231
